Attribute: remaining concentration of organochlorine pesticides in samples
assayName: Degradation of nine organochlorine pesticides by gamma irradiation in samples of P. quinquefolium (GC analysis)
Format: physicochemical
measurementSetup: 5 kGy gamma irradiation, P. quinquefolium samples, mean of three
The response must be a number in ppm with no trailing unit.

Clc1ccc(C(c2ccc(Cl)cc2)C(Cl)Cl)cc1 [p,p′-DDD] :: 0.370

I'd like to know its remaining concentration of organochlorine pesticides in samples. The molecule in question is Clc1ccc(C(c2ccc(Cl)cc2)C(Cl)(Cl)Cl)cc1 [p,p′-DDT]
0.344

I'd like to know its remaining concentration of organochlorine pesticides in samples. The molecule in question is ClC1=C(Cl)C2(Cl)C3C(Cl)C=CC3C1(Cl)C2(Cl)Cl (stereo not drawn) [Heptachlor]
0.421

I'd like to know its remaining concentration of organochlorine pesticides in samples. The molecule in question is Clc1ccc(C(c2ccccc2Cl)C(Cl)Cl)cc1 (stereo not drawn) [o,p′-DDD]
0.337

I'd like to know its remaining concentration of organochlorine pesticides in samples. The molecule in question is O=S1OC[C@@H]2[C@H](CO1)[C@]1(Cl)C(Cl)=C(Cl)[C@]2(Cl)C1(Cl)Cl (stereo partly drawn) [Endosulfan-2]
0.359

I'd like to know its remaining concentration of organochlorine pesticides in samples. The molecule in question is ClC(Cl)=C(c1ccc(Cl)cc1)c1ccc(Cl)cc1 [p,p′-DDE]
0.404

I'd like to know its remaining concentration of organochlorine pesticides in samples. The molecule in question is Cl[C@H]1[C@H](Cl)[C@@H](Cl)[C@@H](Cl)[C@H](Cl)[C@H]1Cl [Lindane]
0.383

I'd like to know its remaining concentration of organochlorine pesticides in samples. The molecule in question is ClC1=C(Cl)C2(Cl)C3C4C=CC(C4)C3C1(Cl)C2(Cl)Cl (stereo not drawn) [Aldrin]
0.376

I'd like to know its remaining concentration of organochlorine pesticides in samples. The molecule in question is O=S1OC[C@@H]2[C@H](CO1)[C@@]1(Cl)C(Cl)=C(Cl)[C@]2(Cl)C1(Cl)Cl (stereo partly drawn) [Endosulfan-1]
0.392
